Hello, the source for this data is patent US12077503B2, in case you need it.

System: barnyardgrass (Echinochloa crus-galli)
Protocol summary: Test B flooded paddy test
Assay type: in vivo
Measurement context: Echinochloa crus-galli, Flood, 250 g ai/ha; scale of 0 to 100 where 0 is no effect and 100 is complete control; read-out: Barnyardgrass plant response rating
Outcome label depends on pest or weed control at 250 g/ha relative to 40%: at/above gives Criterion met, below gives Criterion not met.

q: Dear colleague, could you confirm whether CN1C[C@H](c2ccc3c(c2)CCC3)[C@@H](C(=O)Nc2ccccc2S(C)(=O)=O)C1=O has pest or weed control at 250 g/ha at or above 40%?
a: Criterion met

q: Entry CC(F)(F)c1cccc([C@H]2CNC(=O)[C@@H]2C(=O)Nc2cccc(F)c2F)c1 : is its pest or weed control at 250 g/ha no less than 40%?
a: Criterion met

q: Given CC(C)Oc1cc([C@H]2CN(C)C(=O)[C@@H]2C(=O)Nc2cccc(F)c2F)cc(C(F)(F)F)c1 , state whether its pest or weed control at 250 g/ha is at least 40%.
a: Criterion met

q: Is pest or weed control at 250 g/ha at least 40%? Consider CN1C[C@H](c2cc(F)cc(F)c2)[C@@H](C(=O)Nc2ccccc2S(C)(=O)=O)C1=O
a: Criterion met

q: Hi team, for Cc1ccc([C@H]2CNC(=O)[C@@H]2C(=O)Nc2cccc(F)c2F)c(F)c1 , is the recorded pest or weed control at 250 g/ha at or above 40%?
a: Criterion not met

q: Hi team, for COc1ccc([C@H]2CN(C)C(=O)[C@@H]2C(=O)Nc2ccccc2SC)cc1OC , is the recorded pest or weed control at 250 g/ha at or above 40%?
a: Criterion not met

q: pest or weed control at 250 g/ha >= 40% for COc1cc([C@H]2CN(C)C(=O)[C@@H]2C(=O)Nc2cccc(F)c2F)ccc1C(F)(F)F ?
a: Criterion not met

q: Can COc1cc(C(F)(F)F)ccc1[C@H]1CN(C)C(=O)[C@@H]1C(=O)Nc1ccccc1SC be said to have pest or weed control at 250 g/ha at or above 40%?
a: Criterion not met

q: Reported pest or weed control at 250 g/ha reaches at least 40% for CON1CC[C@H](c2ccc(F)cc2)[C@@H](C(=O)Nc2cccc(F)c2F)C1=O ?
a: Criterion not met

q: Item Cc1cc(F)cc([C@H]2CNC(=O)[C@@H]2C(=O)Nc2ccc(F)c(F)c2F)c1 with pest or weed control at 250 g/ha of 40% or above?
a: Criterion met

q: Quick check, pest or weed control at 250 g/ha >= 40%? Cc1cc([C@H]2CNC(=O)[C@@H]2C(=O)Nc2ccccc2F)ccc1Cl
a: Criterion not met

q: Can CN1C[C@H](c2ccc(C(F)(F)F)cc2)[C@@H](C(=O)Nc2ccc(F)c(F)c2F)C1=O be said to have pest or weed control at 250 g/ha at or above 40%?
a: Criterion met

q: Would you say COc1ccc([C@H]2CN(C)C(=O)[C@@H]2C(=O)Nc2ccccc2F)cc1C(F)(F)F shows pest or weed control at 250 g/ha at minimum 40%?
a: Criterion met

q: Does the compound CN1C[C@H](c2ccc(C(F)(F)F)cc2)[C@@H](C(=O)Nc2ccccc2Br)C1=O have recorded pest or weed control at 250 g/ha that is 40% or more?
a: Criterion not met
